From: the supplement of paper PMC10681739

TEST TARGET: ETS1 (UniProt P14921)
Sequence: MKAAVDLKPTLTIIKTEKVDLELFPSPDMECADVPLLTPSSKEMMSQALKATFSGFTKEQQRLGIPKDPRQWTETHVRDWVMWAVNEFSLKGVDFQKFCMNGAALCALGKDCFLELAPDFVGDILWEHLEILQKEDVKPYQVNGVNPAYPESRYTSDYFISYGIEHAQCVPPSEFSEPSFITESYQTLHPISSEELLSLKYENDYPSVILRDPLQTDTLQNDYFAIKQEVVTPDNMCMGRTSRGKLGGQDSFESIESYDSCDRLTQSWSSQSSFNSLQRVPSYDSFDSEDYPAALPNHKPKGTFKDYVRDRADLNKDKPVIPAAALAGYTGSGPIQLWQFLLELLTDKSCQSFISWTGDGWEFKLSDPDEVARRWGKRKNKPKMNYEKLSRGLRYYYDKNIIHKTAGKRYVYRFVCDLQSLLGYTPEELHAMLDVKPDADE
PROTOCOL SUMMARY: ETS1 binding intensity (PBM fluorescence), ETS1 alone (arbitrary fluorescence units); higher = stronger binding
RECORDED CONDITIONS: ETS1 concentration 1 nM; RUNX1 concentration 0 nM
# ETS1 binding intensity >= 1000 gives met, anything below gives not met

The following sequences have reported results that may help.
> print(dat)
                       monomer.sequence  assigned.class
1  TGGCGCTTCCTGTCGCTACCGCTGCGGCCCAGGGCC         not met
2  TTCTTGTTTCCTGTCAAGGGAGGCTCTGACCACCTC         not met
3  CATAGACCGGATGCCTCGTCAACCACAGAAACCAAT             met
4  TTGATTGGAGCAGGATGTGGTCAGAACAGTATGCAG             met
5  GACCAGGCGAGAGGATGTGGGTATGAGGGAGGAGCT         not met
6  GCACCCTTCCTGCTTCCCACAGTGTGGTATAAGAGG         not met

// query API: above_or_equal(metric=ETS1 binding intensity, cutoff=1000) for item CCAGGCGTTTCCGGGTTCCCGCGGTCCCGTCCCCCA
// result met

// query API: above_or_equal(metric=ETS1 binding intensity, cutoff=1000) for item CATTCAGTAAAAGGATGTGGTTTAGAACAGATGAAA
// result met

// query API: above_or_equal(metric=ETS1 binding intensity, cutoff=1000) for item AACTAAGTGCAGGGGAAGTTGTGGTTATTTTTTACC
// result not met

// query API: above_or_equal(metric=ETS1 binding intensity, cutoff=1000) for item CATACAGGATGCTGGGGTATGTAAAACAAACCACGG
// result not met

// query API: above_or_equal(metric=ETS1 binding intensity, cutoff=1000) for item CCCAGGCTTCCGGGTTGAATATGTGGGCTGAGGCGA
// result not met

// query API: above_or_equal(metric=ETS1 binding intensity, cutoff=1000) for item GTTTCAGTATTTCCTGGTGCGGCGTACCACACCTAC
// result not met

// query API: above_or_equal(metric=ETS1 binding intensity, cutoff=1000) for item GCAGAACCAGAAACAGGATGTGGGTTCCCCTTTAAG
// result met

====

TEST TARGET: ETS1 (UniProt P14921)
Sequence: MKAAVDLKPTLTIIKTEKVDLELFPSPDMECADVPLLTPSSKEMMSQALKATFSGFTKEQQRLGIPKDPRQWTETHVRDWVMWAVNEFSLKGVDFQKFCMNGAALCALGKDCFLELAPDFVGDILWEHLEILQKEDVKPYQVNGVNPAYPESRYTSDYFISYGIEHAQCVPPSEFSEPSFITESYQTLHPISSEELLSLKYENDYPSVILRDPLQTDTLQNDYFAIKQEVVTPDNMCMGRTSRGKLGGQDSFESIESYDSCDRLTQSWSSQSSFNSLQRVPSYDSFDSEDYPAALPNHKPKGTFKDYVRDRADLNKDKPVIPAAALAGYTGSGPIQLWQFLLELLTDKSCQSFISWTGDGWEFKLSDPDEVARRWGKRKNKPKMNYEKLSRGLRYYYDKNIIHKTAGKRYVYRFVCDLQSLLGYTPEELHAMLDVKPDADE
PROTOCOL SUMMARY: ETS1 binding intensity (PBM fluorescence), ETS1 alone (arbitrary fluorescence units); higher = stronger binding
RECORDED CONDITIONS: ETS1 concentration 1 nM; RUNX1 concentration 0 nM
# ETS1 binding intensity >= 1000 gives t, anything below gives f

The following sequences have reported results that may help.
> print(dat)
                       monomer.sequence  assigned.class
1  TCCAAGGCGGAAAAAACCCGCCCTAAACCGCACCCC               f
2  GAAGTGTGCTCTTCCGGTACCTGCGGTTCGTTGCGC               t
3  TGCTTAGCGGGAAGTGCTTACACCACAAAACAAGAC               f
4  CTAGTTTCCTGTGGCTGCTATGACAAATGACCACAG               f
5  GAGGGTTGCTGGGGGGAAGTGTGGTAAATCTTTTCC               f

// query API: above_or_equal(metric=ETS1 binding intensity, cutoff=1000) for item CTGCCCACCGGAAACGATGGCGCGAGGCCGCAGAGC
// result t

// query API: above_or_equal(metric=ETS1 binding intensity, cutoff=1000) for item AGCCACATCCTCCCTTAGGTCTGACCGCAGCTTAAC
// result f

// query API: above_or_equal(metric=ETS1 binding intensity, cutoff=1000) for item GTGGGGAGAGGCAGGAAACCGCTGCCGCCGACGGGG
// result t

// query API: above_or_equal(metric=ETS1 binding intensity, cutoff=1000) for item GAGGCGACCCACATCCGCTGTGCGGGGGCAACTGCA
// result f

// query API: above_or_equal(metric=ETS1 binding intensity, cutoff=1000) for item GGCCTCGGCCACATCCGGGTTCCACCGCAGATTCGG
// result t
